Values compiled from ChEMBL document CHEMBL4219111.

inhibition overview
test-system: Amyloid-beta precursor protein (Homo sapiens)
measurement-notes: Inhibition of self-induced aggregation of amyloid beta (1 to 42) (unknown origin) at 25 uM after 24 hrs by thioflavin T fluorescence-based fluorometric method relative to control
test-readout: inhibition (%)

> print(dat)
                                    molecule  test.readout  units  value.reported
 1  CCN(CCCCCCn1sc2cc(OC)c(OC)cc2c1=O)Cc1ccccc1N(C)C    inhibition      %            31.2
 2  CCN(CCCCn1sc2cc(OC)c(OC)cc2c1=O)Cc1ccccc1    inhibition      %             9.4
 3  COc1ccccc1CN(C)CCCCCCN1C(=O)c2cc(OC)c(OC)cc2S1(=O)=O    inhibition      %            23.9
 4  CCN(CCCn1sc2cc(OC)c(OC)cc2c1=O)Cc1ccc(N(C)C)cc1    inhibition      %            13.4
 5  CCN(CCCn1sc2cc(OC)c(OC)cc2c1=O)Cc1ccccc1    inhibition      %            19.6
 6  CCN(CCCCCCn1sc2cc(OC)c(OC)cc2c1=O)Cc1ccccc1OC    inhibition      %              48
 7  COc1ccccc1CN(C)CCCCCCn1c(=O)c2cc(OC)c(OC)cc2[s+]1[O-] (stereo not given)    inhibition      %              38
 8  CCN(CCCCn1sc2cc(OC)c(OC)cc2c1=O)Cc1ccccc1N(C)C    inhibition      %            11.7
 9   COc1cc2sn(CCCN(C)Cc3ccccc3)c(=O)c2cc1OC    inhibition      %             7.6
10  COc1ccccc1CN(C)CCCCn1sc2cc(OC)c(OC)cc2c1=O    inhibition      %            11.7

###

IC50 overview
test-system: Acetylcholinesterase (Electrophorus electricus)
Sequence (O42275 whole entry): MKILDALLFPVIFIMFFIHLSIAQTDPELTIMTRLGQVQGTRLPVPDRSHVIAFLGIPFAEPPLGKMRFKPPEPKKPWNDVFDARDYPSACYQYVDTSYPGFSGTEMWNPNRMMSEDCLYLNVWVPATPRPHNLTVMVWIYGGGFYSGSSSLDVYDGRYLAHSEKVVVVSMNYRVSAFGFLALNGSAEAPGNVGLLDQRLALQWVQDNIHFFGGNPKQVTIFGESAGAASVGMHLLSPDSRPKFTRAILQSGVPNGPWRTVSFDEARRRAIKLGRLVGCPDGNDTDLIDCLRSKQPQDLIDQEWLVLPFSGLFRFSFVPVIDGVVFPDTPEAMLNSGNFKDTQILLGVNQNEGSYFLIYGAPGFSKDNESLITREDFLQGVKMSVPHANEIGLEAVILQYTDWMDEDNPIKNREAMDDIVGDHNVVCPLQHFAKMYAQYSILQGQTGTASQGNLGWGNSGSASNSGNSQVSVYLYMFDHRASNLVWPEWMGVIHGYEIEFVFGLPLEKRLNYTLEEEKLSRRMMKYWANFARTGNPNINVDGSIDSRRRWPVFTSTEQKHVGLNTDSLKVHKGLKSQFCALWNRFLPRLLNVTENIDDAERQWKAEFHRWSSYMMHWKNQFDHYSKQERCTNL
measurement-notes: Inhibition of Electrophorus electricus AChE using acetylthiocholine iodide as substrate measured after 15 mins by Ellman's method
test-readout: IC50 (nM)

> print(dat)
                                    molecule  test.readout  value.reported
 1  COc1ccccc1CN(C)CCCCn1sc2cc(OC)c(OC)cc2c1=O          IC50            5900
 2  CCN(CCCCCCn1sc2cc(OC)c(OC)cc2c1=O)Cc1ccccc1N(C)C          IC50             560
 3  CCN(CCCCn1sc2cc(OC)c(OC)cc2c1=O)Cc1ccccc1N(C)C          IC50            7100
 4  CCN(CCCCCCn1sc2cc(OC)c(OC)cc2c1=O)Cc1ccccc1OC          IC50             460
 5  CCN(CCCCCCn1c(=O)c2cc(OC)c(OC)cc2[s+]1[O-])Cc1ccccc1 (configuration not stated)          IC50             380
 6  COc1cc2sn(CCCCCCN(C)Cc3ccccc3)c(=O)c2cc1OC          IC50             350
 7  COc1ccccc1CN(C)CCCCCCn1sc2cc(OC)c(OC)cc2c1=O          IC50             610
 8  CCN(CCCn1sc2cc(OC)c(OC)cc2c1=O)Cc1ccc(N(C)C)cc1          IC50           12900
 9  CCN(CCCCCCn1sc2cc(OC)c(OC)cc2c1=O)Cc1ccccc1          IC50             290
10  COc1cc2sn(CCCCN(C)Cc3ccccc3)c(=O)c2cc1OC          IC50            1200
11  CCN(CCCCn1sc2cc(OC)c(OC)cc2c1=O)Cc1ccccc1          IC50             800
12  CCN(CCCCCCN1C(=O)c2cc(OC)c(OC)cc2S1(=O)=O)Cc1ccccc1          IC50           13100
13  COc1ccccc1CN(C)CCCn1sc2cc(OC)c(OC)cc2c1=O          IC50           12000
14   COc1cc2sn(CCCN(C)Cc3ccccc3)c(=O)c2cc1OC          IC50            7500
15  CCN(CCCCn1sc2cc(OC)c(OC)cc2c1=O)Cc1ccccc1OC          IC50            4990
16  COc1ccccc1CN(C)CCCCCCN1C(=O)c2cc(OC)c(OC)cc2S1(=O)=O          IC50            1020
17  CCN(CCCn1sc2cc(OC)c(OC)cc2c1=O)Cc1ccccc1N(C)C          IC50            9700
